# system_under_test: XIAP (Homo sapiens)
# Sequence (P98170 241-356 limits assumed): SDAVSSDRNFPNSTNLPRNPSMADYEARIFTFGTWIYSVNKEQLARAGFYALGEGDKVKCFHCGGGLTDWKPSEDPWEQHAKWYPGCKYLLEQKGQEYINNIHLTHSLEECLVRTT
outcome_measure: IC50 (µM)
Please state the figure in µM; there is no need to write the unit.

Query :: Request: IC50, test system XIAP (Homo sapiens), entry "C[C@H](N)C(=O)N[C@H]1CNC(=O)C[C@H]2CC[C@@H](C(=O)NC(c3ccccc3)c3ccccc3)N2C1=O"
Result :: 0.21
